Reference for the values: the supplement of paper PMC5908809

- Test system: NK-YS (IL-2 2.5 ng/mL)
- assay-summary: percent inhibition of viability; higher = more inhibition
- test-settings: 72 h; 1000 nM
reported-endpoint: percent inhibition of viability (%)

compound	measured-number
Cc1c(Cn2c(C)nc3c(C(=O)O)cc(N4CCOCC4)cc32)cccc1C(F)(F)F (max concentration tested 10000 nM)	5.6
Nc1cc(F)ccc1NC(=O)/C=C/c1cnn(C/C=C/c2ccccc2)c1 [RGFP966] (max concentration tested 10000 nM)	5.06
CC(O)(CS(=O)(=O)c1ccc(F)cc1)C(=O)Nc1ccc(C#N)c(C(F)(F)F)c1 (stereo not drawn) [Bicalutamide] (max concentration tested 10000 nM)	9.96
Oc1c2ccccc2c2c3c(cccc13)N=N2 (max concentration tested 100000 nM)	-7.51
CNc1nc(-c2ccc3c(N)n[nH]c3c2)cc(N2C[C@@H](C(=O)NC3CCCCC3)CC[C@H]2C)n1 (max concentration tested 10000 nM)	11.8
S=C(NCc1ccc2c(c1)OCO2)N1CCN(c2ncnc3c2oc2ccccc23)CC1 [Amuvatinib] (max concentration tested 10000 nM)	12.6
NC(=O)c1cccc2cn(-c3ccc([C@@H]4CCCNC4)cc3)nc12 [Niraparib] (max concentration tested 10000 nM)	25.4
COc1ccccc1S(=O)(=O)Nc1ccc2c(c1)CN(C)C(=O)N2 [PFI-1] (max concentration tested 10000 nM)	24.8
CCc1cc(Nc2nccc(-c3c(-c4ccc(OC)c(C(=O)Nc5c(F)cccc5F)c4)nc4ccccn34)n2)c(OC)cc1N1CCC(N2CCN(S(C)(=O)=O)CC2)CC1 (max concentration tested 10000 nM)	3.02
Cc1cc(Nc2cc(N3CCN(C)CC3)nc(Sc3ccc(NC(=O)C4CC4)cc3)n2)n[nH]1 [Tozasertib] (max concentration tested 10000 nM)	67.3
CN1CCc2c(c3ccccc3n2Cc2ccc(C(=O)NO)cc2)C1 [Tubastatin A] (max concentration tested 10000 nM)	9.99
Nc1ncnc2c1c(COc1cccc(Cl)c1)nn2C1CCOCC1 (max concentration tested 10000 nM)	-2.25
CON(C)C(=O)N1N=C(c2cc(F)ccc2F)S[C@@]1(CCCN)c1ccccc1 [ARRY-520] (max concentration tested 1000 nM)	76.6

====

- Tested on: SNK-6 (IL-2 2.5 ng/mL)
- assay-summary: relative IC50 (inflection point of fitted viability curve, relative to fitted max inhibition); higher = less sensitive
- test-settings: 72 h
reported-endpoint: relative IC50 (nM)

structure-as-smiles	reported-endpoint	units-label	measured-number
Cc1cc(Nc2cc(N3CCN(C)CC3)nc(/C=C/c3ccccc3)n2)n[nH]1	relative IC50	nM	541
Cc1cc(OCc2nnc(SC3CCCC3)n2-c2cccnc2)ccc1-c1ccc(S(C)(=O)=O)cc1	relative IC50	nM	1440
CN1CCc2c(c3ccccc3n2Cc2ccc(C(=O)NO)cc2)C1	relative IC50	nM	1430
CCCCCOC(=O)Nc1nc(=O)n([C@@H]2O[C@H](C)[C@@H](O)[C@H]2O)cc1F	relative IC50	nM	1630

====

The compounds listed here are annotated with their drug sensitivity score.
- Test system: normal primary NK cells, pool 1 (3 donors) (IL-2 2.5 ng/mL)
- assay-summary: drug sensitivity score (DSS) (DSS units); higher = more sensitive; extreme values may be limits of the assay
- test-settings: 72 h

compound	drug sensitivity score
Cc1cc(OCc2nnc(SC3CCCC3)n2-c2cccnc2)ccc1-c1ccc(S(C)(=O)=O)cc1 [NMS-873] (max concentration tested 10000 nM)	11.4
CC(O)(CS(=O)(=O)c1ccc(F)cc1)C(=O)Nc1ccc(C#N)c(C(F)(F)F)c1 (stereo not given) [Bicalutamide] (max concentration tested 10000 nM)	0
CC(C)C[C@H](NC(=O)[C@@H](COC(C)(C)C)NC(=O)[C@H](Cc1ccc(O)cc1)NC(=O)[C@H](CO)NC(=O)[C@H](Cc1c[nH]c2ccccc12)NC(=O)[C@H](Cc1cnc[nH]1)NC(=O)[C@@H]1CCC(=O)N1)C(=O)N[C@@H](CCCNC(=N)N)C(=O)N1CCC[C@H]1C(=O)NNC(N)=O [Goserelin] (max concentration tested 10000 nM)	0
CC(=O)Nc1ccc(C(=O)Nc2ccccc2N)cc1 [Tacedinaline] (max concentration tested 1000 nM)	0.6
O=C(O)c1ccc2c(c1)nc(Nc1cccc(Cl)c1)c1ccncc12 [Silmitasertib] (max concentration tested 10000 nM)	7.64

====

- Test system: IMC-1 (IL-2 20 ng/mL)
- assay-summary: percent inhibition of viability; higher = more inhibition
- test-settings: 72 h; 1 nM
reported-endpoint: percent inhibition of viability (%)

compound	measured-number
COc1cc2c(Oc3ccc(NC(=O)C4(C(=O)Nc5ccc(F)cc5)CC4)cc3F)ccnc2cc1OCCCN1CCOCC1 [Foretinib] (max concentration tested 1000 nM)	-10.2
CNNCc1ccc(C(=O)NC(C)C)cc1 [Procarbazine] (max concentration tested 10000 nM)	-5.39
COc1ccc(COc2cc3oc(=O)c4cc(C(C)O)ccc4c3cc2OC)cc1 (configuration not stated) [Palomid-529] (max concentration tested 10000 nM)	-5.32
COc1ccc(-c2ccc3c(N4CCOC[C@@H]4C)nc(N4CCOC[C@@H]4C)nc3n2)cc1CO [AZD8055] (max concentration tested 10000 nM)	1.04
CCc1cc(Nc2nccc(-c3c(-c4ccc(OC)c(C(=O)Nc5c(F)cccc5F)c4)nc4ccccn34)n2)c(OC)cc1N1CCC(N2CCN(S(C)(=O)=O)CC2)CC1 (max concentration tested 10000 nM)	-4.74
C1=N/C2=N/c3ccc(OCCN4CCCC4)c(c3)COC/C=C/COCc3cccc(c3)C(=C1)N2 [Pacritinib] (max concentration tested 10000 nM)	-5.72
Cc1ncc(-c2ccnc(Nc3ccc(S(C)(=O)=O)cc3)n2)n1C(C)C [AZD-5438] (max concentration tested 10000 nM)	-2.44
CON(C)C(=O)N1N=C(c2cc(F)ccc2F)S[C@@]1(CCCN)c1ccccc1 [Filanesib] (max concentration tested 1000 nM)	0.61
c1ccc([C@H]2CN3CCSC3=N2)cc1 [Levamisole] (max concentration tested 10000 nM)	0.36
COc1ccc(-c2ccc3ncc4c(c3c2)n(-c2ccc(N3CCNCC3)c(C(F)(F)F)c2)c(=O)n4C)cn1 [NVP-BGT226] (max concentration tested 1000 nM)	-4.82
CC(O)(CS(=O)(=O)c1ccc(F)cc1)C(=O)Nc1ccc(C#N)c(C(F)(F)F)c1 (configuration not stated) [Bicalutamide] (max concentration tested 10000 nM)	3.29
CCc1c(C(=O)C(N)=O)c2c(OCC(=O)O)cccc2n1Cc1ccccc1 [Varespladib] (max concentration tested 10000 nM)	-6.89

====

- Test system: IMC-1 (IL-2 20 ng/mL)
- assay-summary: drug sensitivity score (DSS) (DSS units); higher = more sensitive; extreme values may be limits of the assay
- test-settings: 72 h
The compounds listed here are annotated with their drug sensitivity score.

compound	drug sensitivity score
COc1ccc(-c2ccc3ncc4c(c3c2)n(-c2ccc(N3CCNCC3)c(C(F)(F)F)c2)c(=O)n4C)cn1 [NVP-BGT226] (max concentration tested 1000 nM)	11.9
CN(C)C[C@@H]1CCn2cc(c3ccccc32)C2=C(C(=O)NC2=O)c2cn(c3ccccc23)CCO1 [Ruboxistaurin] (max concentration tested 10000 nM)	4.21
CCNC(=O)c1noc(-c2cc(C(C)C)c(O)cc2O)c1-c1ccc(CN2CCOCC2)cc1 [Luminespib] (max concentration tested 1000 nM)	24.3
CC(C)n1nc(-c2ccc3oc(N)nc3c2)c2c(N)ncnc21 [MLN-0128] (max concentration tested 1000 nM)	0.2
Cc1cc(Nc2cc(N3CCN(C)CC3)nc(/C=C/c3ccccc3)n2)n[nH]1 [ENMD-2076] (max concentration tested 10000 nM)	14.2
Cn1cc(-c2ccc3nnc(Sc4ccc5ncccc5c4)n3n2)cn1 [SGX-523] (max concentration tested 5000 nM)	0.89
CN(C)Cc1ccc(S(=O)(=O)n2ccc(/C=C/C(=O)NO)c2)cc1 [Resminostat] (max concentration tested 10000 nM)	5.11
O=C(Nc1c[nH]nc1-c1nc2ccc(CN3CCOCC3)cc2[nH]1)NC1CC1 [AT9283] (max concentration tested 1000 nM)	13.1
CN1CCN(CCOc2cc(OC3CCOCC3)c3c(Nc4c(Cl)ccc5c4OCO5)ncnc3c2)CC1 [Saracatinib] (max concentration tested 10000 nM)	5.54
CCN(CC)CCCC(C)Nc1ccnc2cc(Cl)ccc12 (stereo not given) [Chloroquine] (max concentration tested 100000 nM)	5.31

====

- System: IMC-1 (IL-2 20 ng/mL)
- assay-summary: percent inhibition of viability; higher = more inhibition
- test-settings: 72 h; 10 nM
The molecules listed here are annotated with their percent inhibition of viability.

molecule	tgt	percent inhibition of viability / %
Clc1ccccc1C(c1ccccc1)(c1ccccc1)n1cccn1 [TRAM-34] (max concentration tested 1000 nM)	IMC-1 (IL-2 20 ng/mL)	0.84
CNC(=O)c1ccc(C)c(-n2c(C)cc(OCc3ccc(F)cc3F)c(Br)c2=O)c1 (max concentration tested 1000 nM)	IMC-1 (IL-2 20 ng/mL)	-7.96
CC[C@@]1(O)C(=O)OCc2c1cc1n(c2=O)Cc2cc3c(CN(C)C)c(O)ccc3nc2-1 [Topotecan] (max concentration tested 10000 nM)	IMC-1 (IL-2 20 ng/mL)	2.9
